Assignment: determine reported pIC50 for the given compounds.
biological target: HEK-293-αVβ3 cells (Homo sapiens, UniProt P05106+P06756); assay: αVβ3 Cell Adhesion to Fibrinogen Assay; type: cell-based; set-up: IC50; other: dose reducing by 50% the adhesion of HEK-293-αVβ3 cells to fibrinogen; untreated cells 100% adhesion, 10 mM EDTA 0%; conditions: dose reducing by 50% the adhesion of HEK-293-αVβ3 cells to fibrinogen; separate determinations listed
Sequence (P05106 whole entry): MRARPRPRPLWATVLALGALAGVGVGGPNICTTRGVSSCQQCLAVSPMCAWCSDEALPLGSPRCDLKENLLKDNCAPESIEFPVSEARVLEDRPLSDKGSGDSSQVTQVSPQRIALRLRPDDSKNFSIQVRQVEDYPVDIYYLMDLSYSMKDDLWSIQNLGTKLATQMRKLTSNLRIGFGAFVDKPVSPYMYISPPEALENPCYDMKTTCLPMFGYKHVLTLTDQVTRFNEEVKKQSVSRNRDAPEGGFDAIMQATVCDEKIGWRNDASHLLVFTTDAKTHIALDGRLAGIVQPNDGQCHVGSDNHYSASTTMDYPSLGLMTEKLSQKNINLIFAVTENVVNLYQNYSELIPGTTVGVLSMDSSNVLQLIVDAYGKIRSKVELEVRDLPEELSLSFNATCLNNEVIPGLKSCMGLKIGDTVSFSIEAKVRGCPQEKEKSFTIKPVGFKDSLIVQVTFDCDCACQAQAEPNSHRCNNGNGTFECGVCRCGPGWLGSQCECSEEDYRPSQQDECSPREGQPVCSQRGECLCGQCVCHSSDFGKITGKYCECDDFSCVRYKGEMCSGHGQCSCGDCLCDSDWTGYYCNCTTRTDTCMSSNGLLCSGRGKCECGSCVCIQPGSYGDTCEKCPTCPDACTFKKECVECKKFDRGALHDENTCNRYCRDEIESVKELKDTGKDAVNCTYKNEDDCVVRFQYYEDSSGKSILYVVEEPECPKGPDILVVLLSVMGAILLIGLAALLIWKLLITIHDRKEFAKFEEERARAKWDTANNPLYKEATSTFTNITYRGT
Sequence (P06756 whole entry): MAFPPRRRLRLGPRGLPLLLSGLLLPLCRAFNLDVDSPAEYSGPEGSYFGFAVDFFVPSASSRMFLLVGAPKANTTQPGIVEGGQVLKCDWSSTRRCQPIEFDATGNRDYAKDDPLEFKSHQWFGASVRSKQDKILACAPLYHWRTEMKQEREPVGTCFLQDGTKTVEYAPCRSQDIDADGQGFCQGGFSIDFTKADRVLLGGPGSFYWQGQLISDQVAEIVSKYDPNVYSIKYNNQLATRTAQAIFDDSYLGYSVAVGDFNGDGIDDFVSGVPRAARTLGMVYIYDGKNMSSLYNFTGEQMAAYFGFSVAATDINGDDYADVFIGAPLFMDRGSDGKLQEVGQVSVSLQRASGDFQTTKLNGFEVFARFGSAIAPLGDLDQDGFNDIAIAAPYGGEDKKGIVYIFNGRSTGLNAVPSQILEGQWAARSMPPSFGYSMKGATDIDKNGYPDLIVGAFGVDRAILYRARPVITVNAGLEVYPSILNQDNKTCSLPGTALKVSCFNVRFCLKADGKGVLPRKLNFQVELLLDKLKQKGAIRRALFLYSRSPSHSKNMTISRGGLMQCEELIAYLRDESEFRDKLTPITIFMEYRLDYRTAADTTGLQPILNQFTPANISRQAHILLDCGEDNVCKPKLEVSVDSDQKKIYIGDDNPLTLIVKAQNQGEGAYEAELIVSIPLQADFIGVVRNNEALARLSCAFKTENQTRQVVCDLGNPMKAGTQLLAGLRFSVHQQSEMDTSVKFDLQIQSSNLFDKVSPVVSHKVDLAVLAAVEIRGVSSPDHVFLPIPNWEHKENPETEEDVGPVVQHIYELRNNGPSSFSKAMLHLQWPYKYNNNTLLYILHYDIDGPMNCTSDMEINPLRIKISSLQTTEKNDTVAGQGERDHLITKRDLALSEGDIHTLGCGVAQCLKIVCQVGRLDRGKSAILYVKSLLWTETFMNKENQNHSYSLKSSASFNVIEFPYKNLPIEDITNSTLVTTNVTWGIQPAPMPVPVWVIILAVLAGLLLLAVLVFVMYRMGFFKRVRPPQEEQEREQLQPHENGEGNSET
Give bare numbers, as −log10 of the molar value.

query: GET /values?readout=pIC50&system=HEK-293-αVβ3 cells (Homo sapiens, UniProt P05106+P06756)&item= O=C(CCCCc1ccc2c(n1)NCCC2)NCCC(NC(=O)OCc1cccc(F)c1)C(=O)O (centres unmarked) [Example 66]
result: 6.27

query: GET /values?readout=pIC50&system=HEK-293-αVβ3 cells (Homo sapiens, UniProt P05106+P06756)&item= O=C(CCCCc1ccc2c(n1)NCCC2)NCC[C@H](Nc1nc2ccccc2o1)C(=O)O [Example 87]
result: 6.73

query: GET /values?readout=pIC50&system=HEK-293-αVβ3 cells (Homo sapiens, UniProt P05106+P06756)&item= O=C(CCCCc1nc2c(cc1C1CC1)CCCN2)NCCC(NC(=O)OCc1ccccc1)C(=O)O (centres unmarked) [Example 82]
result: 6.69

query: GET /values?readout=pIC50&system=HEK-293-αVβ3 cells (Homo sapiens, UniProt P05106+P06756)&item= O=C(CCCCc1ccc2c(n1)NCCC2)NCC[C@@H](Nc1nc2ccccc2o1)C(=O)O [Example 85]
result: 6.82

query: GET /values?readout=pIC50&system=HEK-293-αVβ3 cells (Homo sapiens, UniProt P05106+P06756)&item= CC(C)Cc1cn(C(CCNC(=O)CCCCc2ccc3c(n2)NCCC3)C(=O)O)nn1 (centres unmarked) [Example 77]
result: 5.69

query: GET /values?readout=pIC50&system=HEK-293-αVβ3 cells (Homo sapiens, UniProt P05106+P06756)&item= O=C(CCCCc1ccc2c(n1)NCCC2)NCCC(C(=O)O)n1cc(-c2ccccc2)nn1 (centres unmarked) [Example 76]
result: 6.03

Next:
query: GET /values?readout=pIC50&system=HEK-293-αVβ3 cells (Homo sapiens, UniProt P05106+P06756)&item= COc1ccc(COC(=O)NC(CCNC(=O)CCCCc2ccc3c(n2)NCCC3)C(=O)O)cc1 (centres unmarked) [Example 60]
result: 6.24

====

target: HEK-293-αVβ3 cells (Homo sapiens, UniProt P05106+P06756); assay: αVβ3 Cell Adhesion to Fibrinogen Assay; conditions: dose reducing by 50% the adhesion of HEK-293-αVβ3 cells to fibrinogen; separate determinations listed
QUANTITY_NAME: IC50 (nM)
Give bare numbers, in nM.

Field: example entries. Status: answers known.
query: Suppose we examine the molecule O=C(CCCCc1ccc2c(n1)NCCC2)NCC[C@H](Nc1ncc(-c2ccccc2)cn1)C(=O)O [Example 92] ; what IC50 value has been reported?
result: 201

query: Suppose we examine the molecule O=C(CCCCc1ccc2c(n1)NCCC2)NCCC(C(=O)O)n1cnc(-c2ccccc2)n1 (single isomer, unassigned) [Example 93] ; what IC50 value has been reported?
result: 288

query: Suppose we examine the molecule Cc1ccc(S(=O)(=O)NC(CCNC(=O)CCCCc2ccc3c(n2)NCCC3)C(=O)O)cc1 (stereo not drawn) [Example 14] ; what IC50 value has been reported?
result: 6300

Kindly give each listed record's IC50.
1. COc1cccc(C(=O)NC(CCNC(=O)CCCCc2ccc3c(n2)NCCC3)C(=O)O)n1 (stereo not drawn) [Example 71]
2. COC(=O)C(CCNC(=O)CCCCc1ccc2c(n1)NCCC2)NC(=O)OCc1ccccc1 (stereo not drawn) [Example 5]
3. COc1ccc(C(CCNC(=O)CCCCc2ccc3c(n2)NCCC3)C(=O)O)cn1 (stereo not drawn) [Example 79]
4. O=C(CCCCc1ccc2c(n1)NCCC2)NCC[C@@H](Nc1ncc(-c2ccccc2)cn1)C(=O)O [Example 91]

result:
[1140, 2450, 532, 534]

Kindly give each listed record's IC50.
1. O=C(CCCCc1ccc2c(n1)NCCC2)NCCC(NC(=O)OCC(F)(F)C(F)(F)F)C(=O)O (stereo not drawn) [Example 62]
2. O=C(CCCCc1ccc2c(n1)NCCC2)NCCC(NS(=O)(=O)c1cccnc1)C(=O)O (stereo not drawn) [Example 44]
3. O=C(CCCCc1ccc2c(n1)NCCC2)NCCC(Nc1nc2ccccc2o1)C(=O)O (stereo not drawn) [Example 69]
4. O=C(CCCCc1ccc2c(n1)NCCC2)NCCC(NC(=O)OCc1ccccc1F)C(=O)O (stereo not drawn) [Example 65]
5. O=C(CCCCc1ccc2c(n1)NCCC2)NCCC(NC(=O)OCc1ccc(F)c(F)c1)C(=O)O (stereo not drawn) [Example 68]
6. O=C(CCCCc1ccc2c(n1)NCCC2)NCCC(C(=O)O)n1cnc(-c2ccccc2)n1 (stereo not drawn) [Example 78]
7. COc1ccccc1COC(=O)NC(CCNC(=O)CCCCc1ccc2c(n1)NCCC2)C(=O)O (stereo not drawn) [Example 63]
8. O=C(O)CCCNC(=O)CCCCc1ccc2c(n1)NCCC2 [Example 1]

result:
1: 628; 2: 1330; 3: 211; 4: 120; 5: 320; 6: 518; 7: 491; 8: 1350

query: Suppose we examine the molecule O=C(CCCCc1nc2c(cc1C1CC1)CCCN2)NCCC(Nc1nc2ccccc2o1)C(=O)O (stereo not drawn) [Example 83] ; what IC50 value has been reported?
result: 128
